# TARGET_UNDER_TEST: human CYP11B2 (Homo sapiens, UniProt P19099)
# Sequence (P19099 25-503): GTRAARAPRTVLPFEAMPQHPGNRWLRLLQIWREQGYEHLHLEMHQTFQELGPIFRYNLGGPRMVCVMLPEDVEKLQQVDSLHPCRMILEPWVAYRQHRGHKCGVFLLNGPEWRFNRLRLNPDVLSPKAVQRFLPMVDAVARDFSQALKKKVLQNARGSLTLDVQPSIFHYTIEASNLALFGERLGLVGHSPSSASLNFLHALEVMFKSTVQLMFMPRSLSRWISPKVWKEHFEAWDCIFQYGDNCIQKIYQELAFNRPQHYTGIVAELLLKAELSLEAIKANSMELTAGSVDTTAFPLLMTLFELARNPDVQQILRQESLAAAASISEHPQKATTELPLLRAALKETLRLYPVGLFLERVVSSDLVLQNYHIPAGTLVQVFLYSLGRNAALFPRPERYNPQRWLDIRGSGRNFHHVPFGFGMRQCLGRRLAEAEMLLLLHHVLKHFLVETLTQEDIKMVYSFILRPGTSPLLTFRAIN
# ASSAY_NOTES: G-402 cellular enzyme assay, human CYP11B2 (aldosterone release, HTRF)
# CONDITIONS_USED: G-402 cells, 1 μM Deoxycorticosterone
Assignment: determine reported EC50 for the given compounds.
Respond with a number, then the unit of measure.

Check out these entries, answers already filled in.
CC(O)c1cncc(N2C(=O)c3ccc(Cl)cc3C2(C)C)c1 (stereo not shown): 37.8 nM
CC(C)c1nccn1Cc1cncc(N2CCc3cc(Cl)ccc3C2=O)c1: 40.5 nM

Parameters: items (list). Returns: EC50 for each item.
1. CC(Nc1cccc(F)c1)c1cncc(N2CCc3cc(Cl)ccc3C2=O)c1 (stereo not shown)
2. CCC(=O)Nc1cncc(N2CCc3cc(Cl)ccc3C2=O)c1

1. 64.1 nM
2. 2550 nM
